Source: PubChem BioAssay AID2060897

- Tested on: 966289-007-R4-J1-PDC complex spheroid viability
- assay-text: Anticancer human tumor 966289-007-R4-J1-PDC patient-derived pancreatic adenocarcinoma cell line growth inhibition [RAS]
- conditions-used: second compound 0.316 µM; first compound 0.316 µM; hits give low values
measured-endpoint: viability, T/C (%)
State the answer as a number, implicitly in %.

Examples with answers:
C=CC(=O)N1CCN(c2nc(OCC3CCCN3C)nc3c(F)c(-c4nc(N)cc(C)c4C(F)(F)F)c(Cl)cc23)C(C)C1 (stereo not given) + C#Cc1c(F)ccc2cc(O)cc(-c3ncc4c(N5CC6CCC(C5)N6)nc(OCC56CCCN5CC(F)C6)nc4c3F)c12; 97
CC1(O)CCCC1n1c(=O)c(C(F)F)cc2cnc(NC3CCN(S(C)(=O)=O)CC3)nc21 (stereo not given) + C=CC(=O)N1CCN(c2nc(OCC3CCCN3C)nc3c(F)c(-c4nc(N)cc(C)c4C(F)(F)F)c(Cl)cc23)C(C)C1; 25.1

Qu. Recall the reported viability, T/C of CC1(O)CCCC1n1c(=O)c(C(F)F)cc2cnc(NC3CCN(S(C)(=O)=O)CC3)nc21 (stereo not given) + C#Cc1c(F)ccc2cc(O)cc(-c3ncc4c(N5CC6CCC(C5)N6)nc(OCC56CCCN5CC(F)C6)nc4c3F)c12 when tested on 966289-007-R4-J1-PDC complex spheroid viability.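 Further: spheroids exposed to agents for one week before readout; percent viability relative to DMSO vehicle control wells as 100%.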
Ans. 33.9

Qu. Retrieve viability, T/C on 966289-007-R4-J1-PDC complex spheroid viability; query C=CC(=O)Nc1cc(Nc2nccc(-c3cn(C)c4ccccc34)n2)c(OC)cc1N(C)CCN(C)C + C#Cc1c(F)ccc2cc(O)cc(-c3ncc4c(N5CC6CCC(C5)N6)nc(OCC56CCCN5CC(F)C6)nc4c3F)c12
Ans. 105

Qu. Enter viability, T/C (test system 966289-007-R4-J1-PDC complex spheroid viability) for CCC(CC)c1cc(NC2CCC(N)C2)n2nccc2n1 (stereo not given) + C=CC(=O)N1CCN(c2nc(OCC3CCCN3C)nc3c(F)c(-c4nc(N)cc(C)c4C(F)(F)F)c(Cl)cc23)C(C)C1;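 further: spheroids exposed to agents for one week before readout; percent viability relative to DMSO vehicle control wells as 100%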
Ans. 98.8

Qu. State the measured viability, T/C (966289-007-R4-J1-PDC complex spheroid viability) of CCC(CC)c1cc(NC2CCC(N)C2)n2nccc2n1 (stereo not given) + C#Cc1c(F)ccc2cc(O)cc(-c3ncc4c(N5CC6CCC(C5)N6)nc(OCC56CCCN5CC(F)C6)nc4c3F)c12
Ans. 106

Qu. // fetch viability, T/C; item: NC1c2ccccc2OC12CCN(c1cnc3c(N4CCCc5ncccc54)n[nH]c3n1)CC2 (stereo not given) + C#Cc1c(F)ccc2cc(O)cc(-c3ncc4c(N5CC6CCC(C5)N6)nc(OCC56CCCN5CC(F)C6)nc4c3F)c12 ; system: 966289-007-R4-J1-PDC complex spheroid viability;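 further: spheroids exposed to agents for one week before readout; percent viability relative to DMSO vehicle control wells as 100%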
Ans. 95.5

Qu. Output reported viability, T/C of the molecule C[C@@H](NC(=O)c1ncnc(N)c1Cl)c1ncc(C(=O)Nc2cc(C(F)(F)F)c(Cl)cn2)s1 + C=CC(=O)N1CCN(c2nc(OCC3CCCN3C)nc3c(F)c(-c4nc(N)cc(C)c4C(F)(F)F)c(Cl)cc23)C(C)C1 on 966289-007-R4-J1-PDC complex spheroid viability.
Ans. 130

Qu. Param request: viability, T/C | system 966289-007-R4-J1-PDC complex spheroid viability | item Cc1nc(N2CCC3(CC2)COC(C)C3N)c(CO)nc1Sc1ccnc(N)c1Cl (stereo not given) + C=CC(=O)N1CCN(c2nc(OCC3CCCN3C)nc3c(F)c(-c4nc(N)cc(C)c4C(F)(F)F)c(Cl)cc23)C(C)C1;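 further: spheroids exposed to agents for one week before readout; percent viability relative to DMSO vehicle control wells as 100%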
Ans. 123

Qu. Print 966289-007-R4-J1-PDC complex spheroid viability viability, T/C for CC(=O)OC12COC1CC(O)C1(C)C(=O)C(O)C3=C(C)C(OC(=O)C(O)C(NC(=O)OC(C)(C)C)c4ccccc4)CC(O)(C(OC(=O)c4ccccc4)C21)C3(C)C (stereo not given) + C=CC(=O)N1CCN(c2nc(OCC3CCCN3C)nc3c(F)c(-c4nc(N)cc(C)c4C(F)(F)F)c(Cl)cc23)C(C)C1 .
Ans. 12.1
